Kindly supply the reported IC50 values for the records listed here.
target: Nav 1.7 (Homo sapiens, UniProt Q15858); construct: expressed in transfected cells; assay: Whole-cell voltage clamp electrophysiology, automated patch clamp (marker c in Table of Examples); type: cell-based; settings: marker c = Automated patch clamp data; read-out: Nav 1.7 activity
Sequence (Q15858 whole entry): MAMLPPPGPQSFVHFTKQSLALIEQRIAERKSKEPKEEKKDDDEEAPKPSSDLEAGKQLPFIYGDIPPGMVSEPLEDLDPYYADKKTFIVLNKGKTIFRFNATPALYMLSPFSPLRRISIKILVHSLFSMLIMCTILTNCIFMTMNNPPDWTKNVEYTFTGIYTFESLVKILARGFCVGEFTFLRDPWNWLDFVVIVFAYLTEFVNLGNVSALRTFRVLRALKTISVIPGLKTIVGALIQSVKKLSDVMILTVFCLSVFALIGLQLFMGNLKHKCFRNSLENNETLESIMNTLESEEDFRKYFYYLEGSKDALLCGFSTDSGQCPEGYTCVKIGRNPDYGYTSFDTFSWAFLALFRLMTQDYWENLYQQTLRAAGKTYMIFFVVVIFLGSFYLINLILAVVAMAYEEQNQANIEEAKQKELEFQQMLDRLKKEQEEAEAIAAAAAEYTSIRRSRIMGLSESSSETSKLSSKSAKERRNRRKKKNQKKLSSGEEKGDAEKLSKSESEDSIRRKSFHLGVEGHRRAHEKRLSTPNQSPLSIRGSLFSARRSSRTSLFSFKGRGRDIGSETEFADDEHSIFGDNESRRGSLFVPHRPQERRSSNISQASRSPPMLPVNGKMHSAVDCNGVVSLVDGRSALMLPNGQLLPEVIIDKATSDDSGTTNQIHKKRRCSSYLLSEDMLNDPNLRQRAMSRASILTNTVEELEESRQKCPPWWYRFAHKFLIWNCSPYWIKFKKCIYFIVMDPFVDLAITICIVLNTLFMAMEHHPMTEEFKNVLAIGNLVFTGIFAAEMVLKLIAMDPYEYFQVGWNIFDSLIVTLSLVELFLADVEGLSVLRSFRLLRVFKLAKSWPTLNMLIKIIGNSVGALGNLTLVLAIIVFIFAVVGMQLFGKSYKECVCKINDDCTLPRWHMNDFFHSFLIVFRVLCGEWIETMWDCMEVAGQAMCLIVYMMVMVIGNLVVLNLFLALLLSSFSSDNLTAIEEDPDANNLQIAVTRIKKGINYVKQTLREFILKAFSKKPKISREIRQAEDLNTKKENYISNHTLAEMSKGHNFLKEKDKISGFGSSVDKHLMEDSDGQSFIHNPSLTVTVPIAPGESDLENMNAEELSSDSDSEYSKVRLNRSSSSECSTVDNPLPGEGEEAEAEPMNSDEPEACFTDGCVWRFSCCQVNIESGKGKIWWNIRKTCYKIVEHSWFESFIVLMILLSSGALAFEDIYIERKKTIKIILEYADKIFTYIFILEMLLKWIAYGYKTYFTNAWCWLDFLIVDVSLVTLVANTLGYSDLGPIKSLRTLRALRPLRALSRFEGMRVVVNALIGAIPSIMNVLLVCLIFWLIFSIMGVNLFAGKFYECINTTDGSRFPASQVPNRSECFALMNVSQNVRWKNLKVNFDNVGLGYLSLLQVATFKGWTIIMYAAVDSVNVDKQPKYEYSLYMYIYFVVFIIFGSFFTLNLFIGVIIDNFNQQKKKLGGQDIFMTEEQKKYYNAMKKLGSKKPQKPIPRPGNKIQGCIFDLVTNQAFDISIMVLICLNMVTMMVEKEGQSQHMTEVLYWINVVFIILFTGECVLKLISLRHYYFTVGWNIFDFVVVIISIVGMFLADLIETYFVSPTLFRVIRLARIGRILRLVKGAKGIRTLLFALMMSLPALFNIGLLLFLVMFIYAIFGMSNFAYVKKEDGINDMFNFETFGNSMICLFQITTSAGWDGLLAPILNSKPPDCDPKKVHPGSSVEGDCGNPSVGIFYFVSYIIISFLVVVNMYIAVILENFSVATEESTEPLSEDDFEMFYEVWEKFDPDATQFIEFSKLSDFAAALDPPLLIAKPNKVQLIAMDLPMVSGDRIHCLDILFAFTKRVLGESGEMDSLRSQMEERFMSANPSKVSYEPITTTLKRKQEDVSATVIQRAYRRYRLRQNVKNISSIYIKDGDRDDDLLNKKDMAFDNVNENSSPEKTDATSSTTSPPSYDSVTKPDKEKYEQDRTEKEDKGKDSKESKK
Answer format: numeric, µM implied, no suffix.

Entry under review: `CN(c1ccccc1)c1nc(N)nc(-c2noc(C3CN(S(=O)(=O)CC(F)(F)F)C3)n2)n1` . Reported IC50? 0.968

Entry under review: `CCOc1cccnc1-c1nc(-c2nc(N)nc(N(C)c3ccccc3)n2)no1` . Reported IC50? 0.313

Entry under review: `CN(c1ccccc1)c1nc(N)nc(-c2noc(N3CCC(O)(c4ccccc4)CC3)n2)n1` . Reported IC50? 2.62

Entry under review: `CN(c1ccccc1)c1nc(N)nc(-c2noc(N3CCC(COC4CCC4)CC3)n2)n1` . Reported IC50? 0.415

Entry under review: `CN(c1ccccc1)c1nc(N)nc(-c2noc(-c3ccc(C(=O)NC4CC4)nc3)n2)n1` . Reported IC50? 1.89

Entry under review: `CN(c1ccccc1)c1nc(N)nc(-c2noc(C(=O)N3CCCCC3)n2)n1` . Reported IC50? 3.26

Entry under review: `Cc1ncccc1-c1nc(-c2nc(N)nc(N(C)c3ccccc3)n2)no1` . Reported IC50? 1.36

Entry under review: `CN(c1ccccc1)c1nc(N)nc(-c2noc(N3CC[C@@H](OCC(F)(F)F)C3)n2)n1` . Reported IC50? 7.29
